Each entry below carries its recorded perc_remaining.
Measurement Protocol: Hepatic microsomal stability, MLM
Type: in vitro ADME
Test Context: In vitro mouse liver microsomal stability

Molecule: CC(C)[C@H](Nc1ncnc2[nH]c(C(=O)N[C@@H]3CCN(C)C3)cc12)c1ccc2c(c1)S(=O)(=O)CCC2
Units Text: %
perc_remaining: 104.0

Molecule: CC(C)[C@H](Nc1ncnc2[nH]c(-c3cnn(CC(=O)N(C)C)c3)cc12)c1ccc2c(c1)OCCO2 (single isomer, unassigned) [ASAP-0013837]
Units Text: %
perc_remaining: 48.0

Molecule: CNC(=O)c1cccc(-c2cc3c(N[C@H](c4ccc5c(c4)S(=O)(=O)CCC5)C(C)C)ncnc3[nH]2)c1 (single isomer, unassigned)
Units Text: %
perc_remaining: 4.0

Molecule: CC(C)[C@@H](Nc1ncnc2[nH]c(-c3cnn(CC(N)=O)c3)cc12)c1ccc2c(c1)S(=O)(=O)CCC2
Units Text: %
perc_remaining: 20.0

Molecule: CC(C)[C@H](Nc1ncnc2[nH]ccc12)c1ccc2c(c1)S(=O)(=O)CCC2
Units Text: %
perc_remaining: 3.0

Molecule: CC(C)[C@@H](Nc1ncnc2[nH]c(-c3cnn(CC(N)=O)c3)cc12)c1ccc2c(c1)OCCO2
Units Text: %
perc_remaining: 54.0
